test-parameters: 298.15 K; 101.33 kPa; Liquid
Catalogue of compounds with associated mass density
Respond numerically; units are kg/m3 and should not be typed.

Some solved cases for reference:
compound | readout-units | mass density
COC(C)=O [methyl ethanoate] | kg/m3 | 926.73
COC=O [methyl methanoate] | kg/m3 | 966.83
CCCC(=O)OC [methyl butanoate] | kg/m3 | 892.42
CCC(=O)OC [methyl propanoate] | kg/m3 | 910.18

Next compound, please.
Which mass density value belongs to CCCCC(=O)OC [methyl pentanoate] ?
884.59

###

assay-name: refractive index (Na D-line) (dimensionless)
test-parameters: 298.15 K; 101.33 kPa; Liquid; Standard Abbe refractometry
quantity: refractive index
// keep it numeric: no unit symbol after the value

Some solved cases for reference:
compound | refractive index
CCCC(=O)OC [methyl butanoate] | 1.386
CCC(=O)OC [methyl propanoate] | 1.374
COC=O [methyl methanoate] | 1.3415
CCCCC(=O)OC [methyl pentanoate] | 1.395

Next compound, please.
Which refractive index value belongs to COC(C)=O [methyl ethanoate] ?
1.3585
